test system: IGROV-1; assay: NCI tumour cell line growth inhibition, 48 h
Active and inactive are the calls of the source. Rule as the data show it: active = GI50 up to about 1.1 µM and inactive = higher.

- Compound: "COc1cc(NCc2ccc3oc(=O)c(-c4ccccc4)nc3c2)cc(OC)c1OC"
  GI50: "> 10 µM (inactive)"
- Compound: "O=c1[nH]nc2ccccc2c1Cc1ccccc1"
  GI50: "> 100 µM (inactive)"
- Compound: "COc1ccc(-c2oc3cc(-c4cc5oc(-c6ccc(OC)cc6)c(-c6ccc(OC)cc6)c5cc4OC)c(OC)cc3c2-c2ccc(OC)cc2)cc1"
  GI50: "> 100 µM (inactive)"
- Compound: "N#Cc1ccc(/C=N/C23CC4CC(CC(C4)C2)C3)cc1"
  GI50: "> 100 µM (inactive)"
- Compound: "COC(=O)[C@]12CC[C@H]3CN(C(=O)OCc4ccccc4)[C@H]([C@H]31)[C@H](c1ccccc1)N2"
  GI50: "> 100 µM (inactive)"
- Compound: "COc1cc(O)c2c(c1)C(=O)C1=C(C2=O)C(O)C[C@@](C)(O)C1 (some centres undefined)"
  GI50: "1.79 µM (inactive)"
- Compound: "Cc1ccccc1-c1c(N)nc(NC#N)nc1C(=O)Nc1ccccc1"
  GI50: "> 100 µM (inactive)"
- Compound: "CC1=C(C(=O)Nc2ccccc2C)C(c2ccc(Cl)c(Cl)c2)C(C(=O)Nc2ccccc2C)=C(C)N1"
  GI50: "19 µM (inactive)"
- Compound: "CC1=NN(c2ccccc2)C(=O)C12[C@H](c1ccccc1)C2(C#N)C#N (some centres undefined)"
  GI50: "14.2 µM (inactive)"
